System: Saccharomyces cerevisiae
Experiment: Antifungal activity against Saccharomyces cerevisiae ATCC 7754 after 48 hr by broth macrodilution method
Conditions: ATCC 7754, 48 h
endpoint: MIC (µg/mL)
Enter your answer as a number in µg/mL; do not include the unit.

// solved cases for MIC follow
{"columns": ["molecule", "MIC (µg/mL)"],
 "data": [
  ["CCCCCCCCCCCO", 25],
  ["CC(C)=CCC/C(C)=C/COC(=O)c1cc(O)c(O)c(O)c1 [Geranyl gallate]", 50]
]}

Then this molecule:
Per the record, CCCCCCOC(=O)c1cc(O)c(O)c(O)c1 [HEXYL GALLATE] has MIC of 400

Values compiled from ChEMBL document CHEMBL3046297.
